- system: recombinant human Myt1 (full length PKMYT1) (Homo sapiens, UniProt Q99640)
- protocol details: Recombinant human Myt1 kinase assay (ADP-Glo)
pIC50: −log10 of the molar value.
recorded metric: pIC50

Cc1ccc(O)c(C)c1-n1c(N)c(C(N)=O)c2nc3c(-c4ccccc4)cccc3nc21 [Compound 36] | 7.77
NC(=O)c1c(N)n(-c2cccc3[nH]nc(Cl)c23)c2nc3ccccc3nc12 [Compound 8] | 6.54

[P] Cc1ccc(O)c(C)c1-n1c(N)c(C(N)=O)c2nc3cc(-c4cccc(C#N)c4)ccc3nc21 [Compound 48]
[Q] NC(=O)c1c(N)n(-c2cccc3[nH]nc(F)c23)c2nc3ccccc3nc12 [Compound 9]
[R] CCc1c(O)ccc(C)c1-n1c(N)c(C(N)=O)c2nc3ccccc3nc21 [Compound 12]
Order the records by pIC50, with each subsequent value no larger than the one before. Answer with the labels in sequence, matching the requested order.
P, R, Q

---

- system: recombinant human Myt1 (full length PKMYT1) (Homo sapiens, UniProt Q99640)
- Sequence (Q99640 1-499): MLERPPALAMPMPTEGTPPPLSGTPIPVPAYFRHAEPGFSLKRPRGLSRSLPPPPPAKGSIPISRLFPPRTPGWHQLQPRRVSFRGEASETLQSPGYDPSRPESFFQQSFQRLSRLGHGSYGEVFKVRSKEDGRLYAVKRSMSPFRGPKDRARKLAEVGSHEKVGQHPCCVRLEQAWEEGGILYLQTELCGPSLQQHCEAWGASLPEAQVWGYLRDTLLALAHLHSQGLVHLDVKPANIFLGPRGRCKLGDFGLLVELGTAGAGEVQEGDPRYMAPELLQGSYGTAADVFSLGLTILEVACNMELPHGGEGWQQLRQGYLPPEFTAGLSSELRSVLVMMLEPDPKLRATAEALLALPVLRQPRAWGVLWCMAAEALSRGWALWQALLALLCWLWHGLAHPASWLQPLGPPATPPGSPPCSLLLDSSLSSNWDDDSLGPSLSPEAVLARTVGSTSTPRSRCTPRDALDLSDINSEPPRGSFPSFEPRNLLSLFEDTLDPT
- protocol details: Recombinant human Myt1 kinase assay (ADP-Glo)
- cond: Myt1 IC50 (nM), recombinant human Myt1 18 nM, ATP 10 μM, ADP-Glo luminescence
recorded metric: IC50

Some entries whose results are on file:
Cc1ccc(O)c(C)c1-n1c(N)c(C(N)=O)c2nc3cc(Br)ccc3nc21 | < 10 nM
Cc1ccc(O)c(C)c1-n1c(N)c(C(N)=O)c2nc3cccc(C4=CCCC4)c3nc21 | < 10 nM
Cc1ccc(O)c(C)c1-n1c(N)c(C(N)=O)c2nc3cccc(Br)c3nc21 | < 10 nM

Now consider the entry below.
What does the record list as IC50 for Cc1ccc(O)c(C)c1-n1c(N)c(C(N)=O)c2nc3cccc(-c4ccnn4C)c3nc21 ?
< 10 nM

---

- system: recombinant human Myt1 (full length PKMYT1) (Homo sapiens)
- protocol details: Recombinant human Myt1 kinase assay (ADP-Glo)
recorded metric: IC50 (nM)

Cc1ccc(O)c(C)c1-n1cc(C(N)=O)c2c3ccccc3cnc21 [Compound 88] | 32
Cc1ccc(O)c(C)c1-n1c(N)c(C(N)=O)c2nc3c(C4=CCOCC4)cccc3nc21 [Compound 34] | 12
C=C(C)c1ccc2nc3c(C(N)=O)c(N)n(-c4c(C)ccc(O)c4C)c3nc2c1 [Compound 68] | 13

[1] Cc1ccc(O)c(C2CC2)c1-n1c(N)c(C(N)=O)c2nc3ccccc3nc21 [Compound 11]
[2] Cc1ccc(O)c(C)c1-n1c(N)c(C(N)=O)c2nc3c(nc21)CCCC3 [Compound 84]
Hi, I'm comparing two records. Which one has the lower IC50, 1 or 2 ? # answer = label of selected item
2

[1] Cc1ccc(O)cc1-n1c(N)c(C(=O)NC2CC2)c2nc3ccccc3nc21 [Compound 20]
[2] Cc1c(O)ccc(C2CC2)c1-n1c(N)c(C(N)=O)c2nc3ccccc3nc21 [Compound 85]
[3] Cc1ccc(O)cc1-n1cc(C(N)=O)c2nc3ccccc3nc21 [Compound 23]
[4] NC(=O)c1c(N)n(-c2cc(O)ccc2Cl)c2nc3ccccc3nc12 [Compound 4]
Order the records by IC50, with each subsequent value no larger than the one before. Answer with the labels in sequence, matching the requested order.
2, 1, 3, 4
(2: 48900 nM, 1: 7580 nM, 3: 323 nM, 4: 130 nM)

---

- system: recombinant human Myt1 (full length PKMYT1) (Homo sapiens)
- protocol details: Recombinant human Myt1 kinase assay (ADP-Glo)
Each entry below carries its recorded IC50.

Cc1ccc(O)c(C)c1-n1c(N)c(C(N)=O)c2nc3cc(C#CCN4CCOCC4)ccc3nc21 | < 10 nM
Cc1ccc(O)c(C)c1-n1c(N)c(C(N)=O)c2nc3cc(C#CC4CC4)ccc3nc21 | < 10 nM

What does the record list as IC50 for Cc1ccc(O)c(C)c1-n1c(N)c(C(N)=O)c2nc3cc(C#Cc4cnccn4)ccc3nc21 ?
< 10 nM

---

- system: recombinant human Myt1 (full length PKMYT1) (Homo sapiens, UniProt Q99640)
- protocol details: Recombinant human Myt1 kinase assay (ADP-Glo)
pIC50: −log10 of the molar value.
Each entry below carries its recorded pIC50.

Some entries whose results are on file:
Cc1ccc(O)c(C)c1-n1c(N)c(C(N)=O)c2nc3cc(-c4ccccc4)ccc3nc21 | > 8.00
Cc1ccc(O)c(C)c1-n1c(N)c(C(N)=O)c2nc3cc(-c4cn[nH]c4)ccc3nc21 | > 8.00
Cc1ccc(O)c(C)c1-n1c(N)c(C(N)=O)c2nc3cc(C4=CCOCC4)ccc3nc21 | > 8.00

What does the record list as pIC50 for Cc1ccc(O)c(C)c1-n1cc(C(N)=O)c2cc3c(cnn3C)nc21 ?
7.51

---

- system: recombinant human Myt1 (full length PKMYT1) (Homo sapiens)
- Sequence (Q99640 1-499): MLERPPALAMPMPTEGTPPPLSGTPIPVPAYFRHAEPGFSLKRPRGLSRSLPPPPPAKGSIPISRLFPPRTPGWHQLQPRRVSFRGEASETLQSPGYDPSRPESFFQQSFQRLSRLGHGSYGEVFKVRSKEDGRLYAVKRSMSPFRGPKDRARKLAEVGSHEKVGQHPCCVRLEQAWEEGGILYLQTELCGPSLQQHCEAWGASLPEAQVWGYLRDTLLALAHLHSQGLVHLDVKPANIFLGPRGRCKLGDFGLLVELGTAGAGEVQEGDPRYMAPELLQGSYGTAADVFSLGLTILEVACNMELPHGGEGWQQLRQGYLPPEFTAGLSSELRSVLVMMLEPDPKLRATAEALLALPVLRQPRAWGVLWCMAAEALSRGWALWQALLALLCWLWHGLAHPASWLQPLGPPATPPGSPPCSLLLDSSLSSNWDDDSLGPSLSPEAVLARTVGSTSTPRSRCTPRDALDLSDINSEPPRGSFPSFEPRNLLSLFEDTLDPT
- protocol details: Recombinant human Myt1 kinase assay (ADP-Glo)
pIC50: −log10 of the molar value.
recorded metric: pIC50

Cc1ccc(O)c(C)c1-n1c(N)c(C(N)=O)c2nc3ccc(C#CCO)cc3nc21 | 7.96

[1] CCc1ccc(O)c(C)c1-n1c(N)c(C(N)=O)c2nc3ccccc3nc21
[2] Cc1ccc(O)c(C)c1-n1c(N)c(C(N)=O)c2nc3c(C#CC4CC4)cccc3nc21
[3] Cc1ccc(O)cc1-n1c(N)c(C(N)=O)c2nc3nc(N)sc3nc21
Sort ascending by pIC50. Answer with the labels in sequence, matching the requested order.
1, 3, 2
(1: 6.37, 3: 7.03, 2: 7.80)
